settings: buffer; pH 7.4; 200.0 µM
Rule: met for solubility kinetic not less than 0.01 mg/mL, not met for anything less.

-- ask Evaluate CC(=O)Nc1cccc(C(=O)N2CCN(S(=O)(=O)Cc3ccccc3)CC2)c1 : solubility kinetic at minimum 0.01 mg/mL?
-- reply met

-- ask Evaluate CC(=O)Nc1cc2nc(C)n(Cc3ccc([N+](=O)[O-])cc3)c2nc1C : solubility kinetic at minimum 0.01 mg/mL?
-- reply met

-- ask Evaluate COc1ccc(NC(=O)c2cc(-c3ccco3)nc3ccccc23)cc1 : solubility kinetic at minimum 0.01 mg/mL?
-- reply not met

-- ask Evaluate COc1ccc(NC(=O)COC(=O)c2ccc(F)cc2F)cc1 : solubility kinetic at minimum 0.01 mg/mL?
-- reply met

-- ask Evaluate CNC(=S)Nc1cc(C)ccc1OC(F)F : solubility kinetic at minimum 0.01 mg/mL?
-- reply met

-- ask Evaluate O=C(COc1ccccc1F)Nc1ccc2c(c1)OCCO2 : solubility kinetic at minimum 0.01 mg/mL?
-- reply met

-- ask Evaluate CC(C)NC(=O)c1ccc(CN2CCc3ccccc3C2)cc1 : solubility kinetic at minimum 0.01 mg/mL?
-- reply not met

-- ask Evaluate O=C(COC(=O)c1cccc(OC(F)F)c1)NCC1CCCO1 (stereo unspecified) : solubility kinetic at minimum 0.01 mg/mL?
-- reply met

-- ask Evaluate Cn1c(N)c(C(=O)c2ccc(Cl)c(S(=O)(=O)N3CCCCCC3)c2)c(=O)n(C)c1=O : solubility kinetic at minimum 0.01 mg/mL?
-- reply met

-- ask Evaluate CCc1cccc2c(C(=O)COC(=O)[C@@H]3CC(O)CN3S(=O)(=O)c3ccccc3[N+](=O)[O-])c[nH]c12 (stereo partly specified) : solubility kinetic at minimum 0.01 mg/mL?
-- reply met

-- ask Evaluate NC(=O)C1CC(=O)N(c2ccc(OCC(=O)NCc3ccccc3)cc2)C1 (stereo unspecified) : solubility kinetic at minimum 0.01 mg/mL?
-- reply met

-- ask Evaluate COC(=O)C1=C(C(=O)OC)SC(=C2C(=S)C(C)(C)N(C(=O)C3CC3)c3ccccc32)S1 : solubility kinetic at minimum 0.01 mg/mL?
-- reply met

-- ask Evaluate CCOC(=O)c1c(N)sc2c1CCCC2=O : solubility kinetic at minimum 0.01 mg/mL?
-- reply met

-- ask Evaluate CC(=O)OC(C(=O)Nc1nccs1)c1ccccc1 (stereo unspecified) : solubility kinetic at minimum 0.01 mg/mL?
-- reply met

-- ask Evaluate COc1ccc(CC(=O)NC2CCSc3ccccc32)cc1OC (stereo unspecified) : solubility kinetic at minimum 0.01 mg/mL?
-- reply not met

-- ask Evaluate Cc1nonc1C(=O)N1CCCC(Nc2ccc(C(C)C)cc2)C1 (stereo unspecified) : solubility kinetic at minimum 0.01 mg/mL?
-- reply met

----------
settings: buffer; pH 7.4; 200.0 µM
Parameter measured: solubility kinetic

-- ask Data request, read-out solubility kinetic, for CSc1ncc(Cl)c(C(=O)Nc2cccnc2)n1
-- reply > 42.1 µg/mL

-- ask Data request, read-out solubility kinetic, for CCCc1nnc(SCC(=O)N(CC)CC)n1CC1CCCO1 (stereo unspecified)
-- reply > 51.1 µg/mL

-- ask Data request, read-out solubility kinetic, for CN1c2ccccc2C(=O)NC1c1ccc(Cl)cc1 (stereo unspecified)
-- reply > 40.9 µg/mL

-- ask Data request, read-out solubility kinetic, for CCn1c(Oc2ccc(F)cc2)nc2c1c(=O)n(C)c(=O)n2C
-- reply > 47.7 µg/mL

-- ask Data request, read-out solubility kinetic, for COc1ccc(CCNC(=O)COC(=O)C2CC2C)cc1 (stereo unspecified)
-- reply > 43.7 µg/mL

-- ask Data request, read-out solubility kinetic, for CCCOc1ccc(C2NC(=O)CCC2[N+](=O)[O-])cc1 (stereo unspecified)
-- reply > 41.7 µg/mL
